biological target: 5HT-Transporter (Homo sapiens, UniProt P31645); construct: Human platelet membranes (Oceanix Biosciences Corporation, Hanover, Md., USA) were thawed; tissue Oceanix Biosciences Corporation; host or cells: human platelet membranes; assay: Binding experiment for the 5HT-transporter ([3H]paroxetine, human platelet membranes); conditions: [3H]paroxetine 0.5 nM, read-out: h-5HTT pIC50 (converted)
Sequence (P31645 whole entry): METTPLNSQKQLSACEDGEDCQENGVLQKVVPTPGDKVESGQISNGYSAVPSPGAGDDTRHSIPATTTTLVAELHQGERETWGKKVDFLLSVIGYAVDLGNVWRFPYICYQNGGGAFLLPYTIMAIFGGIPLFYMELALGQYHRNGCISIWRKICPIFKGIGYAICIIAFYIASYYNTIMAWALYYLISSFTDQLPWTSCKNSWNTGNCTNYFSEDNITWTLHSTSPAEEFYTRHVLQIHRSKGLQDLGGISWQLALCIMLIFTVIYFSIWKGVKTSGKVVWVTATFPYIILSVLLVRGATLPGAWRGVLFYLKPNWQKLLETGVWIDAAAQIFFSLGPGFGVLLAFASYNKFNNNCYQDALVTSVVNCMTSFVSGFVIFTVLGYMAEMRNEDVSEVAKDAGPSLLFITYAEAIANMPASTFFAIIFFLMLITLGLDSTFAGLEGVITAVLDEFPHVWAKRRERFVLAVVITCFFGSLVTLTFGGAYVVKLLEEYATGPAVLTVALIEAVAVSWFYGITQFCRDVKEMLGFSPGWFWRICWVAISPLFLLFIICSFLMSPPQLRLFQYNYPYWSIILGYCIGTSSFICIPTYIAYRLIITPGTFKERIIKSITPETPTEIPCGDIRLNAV
MEASURED METRIC: IC50 (nM)

Solved cases (3 shown):
O=c1c(N2CCN(CCOc3ccc(F)cc3)CC2)nccn1CCN1CCCCC1 | 7940
COc1ccc(-c2nnc(Cn3ccnc(N4CCN(CCOc5ccc(F)cc5)CC4)c3=O)o2)cc1 | 794
O=c1c(N2CCN(CCOc3ccc(F)cc3)CC2)nccn1CCCc1ccccc1 | 2000

A. O=c1c(NC2CCN(CCOc3ccccc3)CC2)nccn1Cc1ccc2ccccc2n1
B. O=C1c2ccccc2C(=O)N1CCCn1ccnc(NC2CCN(CCOc3ccccc3)CC2)c1=O
Query string: Form field 'greater IC50' accepts A or B ; which applies? Respond with the label that goes with your answer.
Result string: A
(A: 2510 nM, B: 1000 nM)

====

target: hα2A receptor (Homo sapiens); construct: expressed in transfected cells; assay: Radioligand binding experiment for hα2A receptor ([3H]-raulwolscine, CHO cell membranes); settings: [3H]raulwolscine 1 nM, membranes of CHO cells transfected with human α2A receptor; read-out: h-α2A pIC50 (converted)
MEASURED METRIC: IC50 (nM)

Worked set:
O=c1c(N2CCN(CCOc3ccc(F)cc3)CC2)nccn1Cc1ccco1 [Compound 12-1] | 200
CC(C)(C)C(=O)Cn1ccnc(NC2CCN(CCOc3ccccc3)CC2)c1=O [Compound 5-5] | 158

P. O=c1c(NC2CCN(CCOc3ccccc3)CC2)nccn1Cc1ccc(Br)cc1 [Compound 4-3]
Q. O=c1c(NC2CCN(CCOc3ccccc3)CC2)nccn1CCc1ccccc1 [Compound 4-4]
R. O=C(Cn1ccnc(NC2CCN(CCOc3ccccc3)CC2)c1=O)NCc1ccc(F)cc1 [Compound 1-14]
Query string: Hey, quick one: sort these by IC50, largest value first please. Hello, could you send the labels back in the order asked? Thank you.
Result string: R, Q, P

====

target: hα2C receptor (Homo sapiens); construct: expressed in transfected cells; test: Radioligand binding experiment for α2C-adrenoceptor ([3H]-raulwolscine, CHO cell membranes); conditions: [3H]raulwolscine 1 nM, membranes of CHO cells transfected with human α2C receptor; read-out: h-α2C pIC50 (converted)
MEASURED METRIC: IC50 (nM)

Example entries begin here.
O=c1c(NC2CCN(CCOc3ccccc3)CC2)nccn1Cc1cccc(Br)c1 | 15.8
O=c1c(N2CCN(CCOc3ccc(F)cc3)CC2)nccn1Cc1ccc(Cl)s1 | 79.4
CN(C)CCN(Cc1ccccc1)C(=O)Cn1ccnc(NC2CCN(CCOc3ccccc3)CC2)c1=O | 0.794
CN(Cc1ccccc1)C(=O)Cn1ccnc(NC2CCN(CCOc3ccccc3)CC2)c1=O | 3.98
Cc1nc(Cn2ccnc(N3CCN(CCOc4ccc(F)cc4)CC3)c2=O)cs1 | 316

a. O=c1c(NC2CCN(CCOc3ccccc3)CC2)nccn1Cc1ccccc1Br
b. O=C(Cn1ccnc(NC2CCN(CCOc3ccccc3)CC2)c1=O)Nc1ccccc1
c. O=c1c(NC2CCN(CCOc3ccccc3)CC2)nccn1-c1ccc(CN2CCCCC2)cc1
Query string: Rank by IC50 (largest to smallest). // ordering of labels required in reply
Result string: a, b, c

====

biological target: 5HT-Transporter (Homo sapiens, UniProt P31645); construct: Human platelet membranes (Oceanix Biosciences Corporation, Hanover, Md., USA) were thawed; tissue Oceanix Biosciences Corporation; host or cells: human platelet membranes; assay: Binding experiment for the 5HT-transporter ([3H]paroxetine, human platelet membranes); settings: [3H]paroxetine 0.5 nM, read-out: h-5HTT pIC50 (converted)
MEASURED METRIC: IC50 (µM)

I. O=c1c(N2CCN(CCOc3ccc(F)cc3)CC2)nccn1Cc1ccc2ccccc2c1
II. O=c1c(N2CCN(CCOc3ccc(F)cc3)CC2)nccn1CCOCc1ccccc1
Query string: Looking at I and II , which one comes out lower in IC50 terms? Mark your answer with the label of the selected entry.
Result string: I
(I: 2 µM, II: 3.98 µM)

====

target: hα2C receptor (Homo sapiens, UniProt P18825); construct: expressed in transfected cells; test: Radioligand binding experiment for α2C-adrenoceptor ([3H]-raulwolscine, CHO cell membranes); settings: [3H]raulwolscine 1 nM, membranes of CHO cells transfected with human α2C receptor; read-out: h-α2C pIC50 (converted)
Sequence (P18825 whole entry): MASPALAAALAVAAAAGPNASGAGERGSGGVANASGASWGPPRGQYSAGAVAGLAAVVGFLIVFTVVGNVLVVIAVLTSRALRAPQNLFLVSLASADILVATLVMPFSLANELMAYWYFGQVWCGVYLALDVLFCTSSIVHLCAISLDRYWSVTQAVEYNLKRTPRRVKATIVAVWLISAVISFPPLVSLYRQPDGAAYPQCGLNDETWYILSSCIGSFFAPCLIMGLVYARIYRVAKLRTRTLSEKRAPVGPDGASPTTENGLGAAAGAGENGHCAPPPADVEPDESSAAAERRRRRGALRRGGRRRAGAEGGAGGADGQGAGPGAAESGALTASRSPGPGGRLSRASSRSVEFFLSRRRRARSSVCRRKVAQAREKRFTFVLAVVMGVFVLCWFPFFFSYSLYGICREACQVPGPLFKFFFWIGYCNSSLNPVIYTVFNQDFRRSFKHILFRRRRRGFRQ
MEASURED METRIC: IC50 (nM)

O=c1c(NC2CCN(CCOc3ccccc3)CC2)nccn1Cc1ccc(Br)cc1 [Compound 4-3] | 20

I. O=C(Cn1ccnc(NC2CCN(CCOc3ccccc3)CC2)c1=O)NCCc1ccccc1 [Compound 1-15]
II. O=c1c(NC2CCN(CCOc3ccccc3)CC2)nccn1-c1ccc(N2CCC(N3CCCC3)CC2)cc1 [Compound 2-10]
Query string: // task: argmin of IC50 over [ I , II ] To answer, give the label that identifies your chosen option.
Result string: I
(I: 3.16 nM, II: 7.94 nM)

P. O=c1[nH]ccnc1NC1CCN(CCOc2ccccc2)CC1 [Compound 5-1]
Q. O=C1c2ccccc2C(=O)N1CCCn1ccnc(NC2CCN(CCOc3ccccc3)CC2)c1=O [Compound 2-15]
R. CC(C)(C)C(=O)Cn1ccnc(NC2CCN(CCOc3ccccc3)CC2)c1=O [Compound 5-6]
Query string: Put the compounds in ascending order of IC50. # format: label list in the order the request specifies
Result string: Q, R, P
(Q: 1.26 nM, R: 10 nM, P: 39.8 nM)

I. CN(C)CCn1ccnc(NC2CCN(CCOc3ccccc3)CC2)c1=O [Compound 1-3]
II. CC(C)(C)OC(=O)NCc1ccc(Cn2ccnc(N3CCN(CCOc4ccc(F)cc4)CC3)c2=O)cc1 [Compound 7-3]
III. O=c1c(NC2CCN(CCOc3ccccc3)CC2)nccn1-c1cccc(N2CCC(N3CCCC3)CC2)c1 [Compound 2-9]
IV. O=C(Cn1ccnc(NC2CCN(CCOc3ccccc3)CC2)c1=O)NCC(c1ccccc1)c1ccccc1 [Compound 1-19]
V. O=C(Cn1ccnc(NC2CCN(CCOc3ccccc3)CC2)c1=O)N1CCC(N2CCCC2)CC1 [Compound 2-8]
Query string: Order by IC50, ascending. Put the labels in the requested order and write them down.
Result string: III, V, IV, I, II
(III: 1 nM, V: 2.51 nM, IV: 5.01 nM, I: 20 nM, II: 251 nM)

I. O=c1c(N2CCN(CCOc3ccc(F)cc3)CC2)nccn1CC(c1ccccc1)c1ccccc1 [Compound 11-3]
II. O=c1c(NC2CCN(CCOc3ccccc3)CC2)nccn1-c1ccc(N2CCCCC2)cc1 [Compound 2-4]
Query string: Between I and II , which one shows the smaller IC50 number? Refer to your chosen item by its label in the answer.
Result string: II

====

target: hα2A receptor (Homo sapiens, UniProt P08913); construct: expressed in transfected cells; assay: Radioligand binding experiment for hα2A receptor ([3H]-raulwolscine, CHO cell membranes); conditions: [3H]raulwolscine 1 nM, membranes of CHO cells transfected with human α2A receptor; read-out: h-α2A pIC50 (converted)
Sequence (P08913 whole entry): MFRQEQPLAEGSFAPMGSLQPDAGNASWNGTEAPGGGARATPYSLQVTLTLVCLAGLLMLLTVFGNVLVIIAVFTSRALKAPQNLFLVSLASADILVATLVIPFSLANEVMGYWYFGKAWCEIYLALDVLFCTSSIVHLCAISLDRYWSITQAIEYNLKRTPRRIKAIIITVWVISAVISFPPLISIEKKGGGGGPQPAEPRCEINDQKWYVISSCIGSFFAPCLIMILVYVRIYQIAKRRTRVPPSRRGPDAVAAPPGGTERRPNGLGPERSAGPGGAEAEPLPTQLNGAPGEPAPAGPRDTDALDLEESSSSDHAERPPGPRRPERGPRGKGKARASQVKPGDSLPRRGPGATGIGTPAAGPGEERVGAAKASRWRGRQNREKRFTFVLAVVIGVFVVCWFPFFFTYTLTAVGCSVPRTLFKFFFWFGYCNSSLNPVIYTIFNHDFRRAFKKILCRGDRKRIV
MEASURED METRIC: IC50 (µM)

Example results:
O=C(Cn1ccnc(NC2CCN(CCOc3ccccc3)CC2)c1=O)c1ccccc1 | 0.0398
O=c1c(NC2CCN(CCOc3ccccc3)CC2)nccn1Cc1ccccc1Br | 0.158
O=c1c(NC2CCN(CCOc3ccccc3)CC2)nccn1Cc1ccc2ccccc2c1 | 0.0794
C=CCn1ccnc(N2CCN(CCOc3ccc(F)cc3)CC2)c1=O | 0.501

1. O=c1c(N2CCN(CCOc3ccc(F)cc3)CC2)nccn1CC(c1ccccc1)c1ccccc1
2. COC(=O)Cn1ccnc(NC2CCN(CCOc3ccccc3)CC2)c1=O
3. O=c1c(N2CCN(CCOc3ccc(F)cc3)CC2)nccn1CC1CCCCC1
4. O=C(Cn1ccnc(NC2CCN(CCOc3ccccc3)CC2)c1=O)N(CCN1CCCC1)Cc1ccccc1
Query string: Sort (4 molecules) by IC50: min first. Write the labels, ordered according to the request.
Result string: 4, 2, 1, 3

====

target: hα2C receptor (Homo sapiens, UniProt P18825); construct: expressed in transfected cells; assay: Radioligand binding experiment for α2C-adrenoceptor ([3H]-raulwolscine, CHO cell membranes); details: [3H]raulwolscine 1 nM, membranes of CHO cells transfected with human α2C receptor; read-out: h-α2C pIC50 (converted)
MEASURED METRIC: IC50 (nM)

O=c1c(NC2CCN(CCOc3ccccc3)CC2)nccn1Cc1ccncc1 | 39.8

1. CN(CCc1ccccc1)C(=O)Cn1ccnc(NC2CCN(CCOc3ccccc3)CC2)c1=O
2. COCCn1ccnc(NC2CCN(CCOc3ccccc3)CC2)c1=O
Query string: Lab note: record which item had the higher IC50, 1 or 2 . Give the label of your selection.
Result string: 2
(2: 50.1 nM, 1: 7.94 nM)

1. O=C(Cn1ccnc(NC2CCN(CCOc3ccccc3)CC2)c1=O)c1ccccc1
2. CC(C)(C)OC(=O)NCCCn1ccnc(NC2CCN(CCOc3ccccc3)CC2)c1=O
3. COc1ccc(-c2nnc(Cn3ccnc(N4CCN(CCOc5ccc(F)cc5)CC4)c3=O)o2)cc1
Query string: Order these by IC50, descending, and give the full ranking. # the answer lists labels in the order requested
Result string: 3, 1, 2
